# target_under_test: recombinant human UAE (Homo sapiens (Human))
# protocol_text: Ubiquitin Activating Enzyme (UAE) HTRF Assay
# assay_context: read-out: % inhibition @0.111 μM
assay_endpoint: inhibition at 0.111 µM (%)
Just the number in %, nothing appended.

                                   compound  quantity_unit  measured
0  COc1ccc(C(C)(C)C)cc1-c1cc2nccc(N[C@@H]3C[C@H](COS(N)(=O)=O)[C@@H](O)[C@H]3O)n2n1 (relative stereo)              %       100

Can you look up the measured inhibition at 0.111 µM of NS(=O)(=O)OC[C@H]1C[C@@H](Nc2ccnc3cc(-c4ccc5cccnc5c4)nn23)[C@H](O)[C@@H]1O (relative stereo) for me? 100

Requested read-out: inhibition at 0.111 µM. Entry: NS(=O)(=O)OC[C@H]1C[C@@H](Nc2ccnc3cc(-c4ccc5ccccc5n4)nn23)[C@H](O)[C@@H]1O (relative stereo) 100

###

# target_under_test: recombinant human UAE (Homo sapiens (Human))
# protocol_text: Ubiquitin Activating Enzyme (UAE) HTRF Assay
# assay_context: read-out: % inhibition @0.111 μM
assay_endpoint: inhibition at 0.111 µM (%)
Your answer should be a plain number; it is taken to be in %.

Guide cases for inhibition at 0.111 µM, answers given:
>>> df
                                   molecule  quantity_unit  measured
0  NS(=O)(=O)OC[C@H]1C[C@@H](Nc2ccnc3cc(-c4ccccc4Oc4ccccc4)nn23)[C@H](O)[C@@H]1O (relative stereo)              %        95
1  NS(=O)(=O)OC[C@H]1C[C@@H](Nc2ccnc3cc(-c4cc5ccc(Cl)cc5s4)nn23)[C@H](O)[C@@H]1O (relative stereo)              %        97

// below: inhibition at 0.111 µM requested for another molecule
Form: Entry = Cc1cc(N[C@@H]2C[C@H](COS(N)(=O)=O)[C@@H](O)[C@H]2O)n2nc(-c3ccccc3)cc2n1 (relative stereo) | System = recombinant human UAE (Homo sapiens (Human)) | inhibition at 0.111 µM = ____ 31

###

# target_under_test: recombinant human UAE (Homo sapiens (Human), UniProt P22314)
# Sequence (P22314 whole entry): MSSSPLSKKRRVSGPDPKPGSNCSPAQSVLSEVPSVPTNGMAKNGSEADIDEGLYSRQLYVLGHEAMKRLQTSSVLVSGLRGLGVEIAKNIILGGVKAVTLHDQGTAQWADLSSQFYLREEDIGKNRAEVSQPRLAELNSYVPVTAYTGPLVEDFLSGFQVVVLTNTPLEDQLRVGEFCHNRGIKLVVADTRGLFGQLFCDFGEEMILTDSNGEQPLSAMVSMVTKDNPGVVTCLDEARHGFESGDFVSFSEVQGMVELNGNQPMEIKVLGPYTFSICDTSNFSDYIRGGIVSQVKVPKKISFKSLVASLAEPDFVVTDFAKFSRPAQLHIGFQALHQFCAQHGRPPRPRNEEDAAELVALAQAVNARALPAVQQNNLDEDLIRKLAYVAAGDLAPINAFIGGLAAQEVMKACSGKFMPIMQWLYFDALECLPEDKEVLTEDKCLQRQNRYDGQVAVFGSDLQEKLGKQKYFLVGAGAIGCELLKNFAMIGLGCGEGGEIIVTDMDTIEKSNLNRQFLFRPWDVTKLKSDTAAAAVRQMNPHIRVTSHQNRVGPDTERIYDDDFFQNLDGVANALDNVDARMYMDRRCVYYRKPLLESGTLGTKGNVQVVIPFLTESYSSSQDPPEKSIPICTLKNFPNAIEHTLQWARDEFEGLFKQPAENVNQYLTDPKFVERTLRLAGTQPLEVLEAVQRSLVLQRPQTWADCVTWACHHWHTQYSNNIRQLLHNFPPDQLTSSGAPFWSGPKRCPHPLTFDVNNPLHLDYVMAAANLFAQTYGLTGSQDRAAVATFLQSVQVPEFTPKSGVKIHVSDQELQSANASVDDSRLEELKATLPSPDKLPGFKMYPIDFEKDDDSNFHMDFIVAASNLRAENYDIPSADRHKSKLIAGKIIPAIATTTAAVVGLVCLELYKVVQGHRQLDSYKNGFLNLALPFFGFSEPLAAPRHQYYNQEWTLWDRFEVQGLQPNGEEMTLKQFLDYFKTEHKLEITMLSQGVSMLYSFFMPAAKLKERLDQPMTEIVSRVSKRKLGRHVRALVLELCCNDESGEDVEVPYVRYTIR
# protocol_text: Ubiquitin Activating Enzyme (UAE) HTRF Assay
# assay_context: read-out: % inhibition @0.111 μM
assay_endpoint: inhibition at 0.111 µM (%)
Numeric only. Scale: %

In [3]: df
Out[3]:
                                   molecule                         target_under_test  measured
0  NS(=O)(=O)OC[C@H]1C[C@@H](Nc2c(Cl)cnc3c(Cl)c(-c4cccc(SC(F)(F)F)c4)nn23)[C@H](O)[C@@H]1O  recombinant human UAE (Homo sapiens (Human), UniProt P22314)        20
1  NS(=O)(=O)OC[C@H]1C[C@@H](Nc2ccnc3cc(-c4ccc(Cl)cc4Cl)nn23)[C@H](O)[C@@H]1O (relative stereo)  recombinant human UAE (Homo sapiens (Human), UniProt P22314)        84

Return reported inhibition at 0.111 µM; argument: CCCOC(C)(C)c1cccc(-c2cc3nccc(N[C@@H]4C[C@H](COS(N)(=O)=O)[C@@H](O)[C@H]4O)n3n2)c1 (relative stereo) 100

###

# target_under_test: recombinant human UAE (Homo sapiens (Human), UniProt P22314)
# protocol_text: Ubiquitin Activating Enzyme (UAE) HTRF Assay
# assay_context: read-out: % inhibition @0.111 μM
assay_endpoint: inhibition at 0.111 µM

                                   compound  measured
0  NS(=O)(=O)OC[C@H]1C[C@@H](Nc2ccnc3cc(-c4cccc(OC(F)F)c4)nn23)[C@H](O)[C@@H]1O (relative stereo)      100%

Please report the recorded inhibition at 0.111 µM for COc1ccc(Cl)cc1-c1cc2nccc(N[C@@H]3C[C@H](COS(N)(=O)=O)[C@@H](O)[C@H]3O)n2n1 (relative stereo) . 100%

I have this compound here, NS(=O)(=O)OC[C@H]1C[C@@H](Nc2ccnc3cc(-c4cccc(SC(F)(F)F)c4)nn23)[C@H](O)[C@@H]1O (relative stereo) [Compound I-044] , and I need its recorded inhibition at 0.111 µM. 100%

Source listed as patent US10202389B2.
